Target: T1, D1 domain of human IL-2Rγ extracellular domain expressed with a C-terminal myc-myc-hexahistidine tag (human)
T1 construct: also called human IL2Rγ domain 1
T1 chain: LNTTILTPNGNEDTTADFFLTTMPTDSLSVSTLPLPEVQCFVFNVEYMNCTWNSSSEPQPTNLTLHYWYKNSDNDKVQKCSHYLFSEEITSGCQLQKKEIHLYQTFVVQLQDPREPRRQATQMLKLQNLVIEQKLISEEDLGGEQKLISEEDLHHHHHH
Test: SPR, mAb captured on anti-hFc, 25 C
VALUE KIND: Kd (nM)
Give a bare numeral; the unit nM is implied.

Qu. GET /values?readout=Kd&item= H4H12863P (antibody, human IgG4 S228P, kappa, V domains shown, human IgG4) VH: QVQLVESGGGVVQPGRSLRLSCTASGFTFRSYDMYWVRQAPGKGLEWVSVITYDGNNKYYADSVKGRFTISRDNSKNTLFLQMSSLRPEDTAVYYCAKRGLIWVGESFDYWGQGTLVTVSS VL: DIQMTQSPSTLSASVGDRVTITCRASQSINSWLAWYQQKPGKAPNLLIYKASSLESGVPSRFSGSGSGTEFTLTISSLQPDDFATYYCQQYKSYSWTFGQGTKVEIKR
Ans. 4.74
